target: SARS-COV-2 RBD extracellular domain expressed with a C-terminal mouse IgG2a (SARS-CoV-2)
Recorded Kd values for a group of binders are listed next.
measurement_kind: Kd

binder="mAb10935 (antibody, V domains shown) VH: EVQLVESGGGLVQPGGSLRLSCAASGFTVSSNYMSWVRQAPGKGLEWVSLIYSGGSTYYADSVKGRFTISRHNSKNTLYLQMNSLRSEDTAVYYCARVPLGDYYYGMDVWGQGTTVTVSS VL: DIQMTQSPSSLSASVGDRVTITCQASQDINKYLNWYQQKPGKAPKLLIYDASNLETGVPSRFSGSGSGTDFTFTISSLQPEDIATYYCQQSDNLPLTFGGGTKVEIKR" result="≤ 0.0261 nM"
binder="mAb10913 (antibody, V domains shown) VH: EVQLVESGGGLVQPGGSLRLSCAASGFTFRNYEMNWVRQAPGKGLEWVSYITSSGSTMYYADSVKGRFTISRDNAKNSLYLQMNSLRAEDTAVYYCARDGFYYYYAMDVWGQGTTVTVSS VL: QSVLTQPPSVSAAPGQKVTISCSGSSSNIGNNYVSWYQQLPGTAPKLLIYDNNKRPSGIPDRFSGSKSGTSATLGITGLQTGDEADYYCGTWDSSLSVGRVFGTGTKVTVLG" result="0.244 nM"
binder="mAb10971 (antibody, V domains shown) VH: EVQLVESGGGLIQPGGSLRLSCAASGVTVSSNYMSWVRQAPGKGLEWVSVIYSGGSTFYSDSVKGRFSISRDNSKNTLYLQMNSLRAEDTAVYYCARDLYYYGMDVWGQGTTVTVSS VL: DIQLTQSPSFLSASVGDRVTITCRASQGISTYLAWYQQKPGKAPKLLIYAASTLQSGVPSRFSGSGSGTEFTLTISSLQPEDFATYYCQQLDSYPGLTFGGGTKVEIKR" result="≤ 0.0253 nM"
binder="mAb10982 (antibody, V domains shown) VH: EVQLVESGGGLVQPGGSLRLSCAASGLTVSSNYMSWVRQAPGKGLEWVSVIYSGGTTYYADSVKGRFTISRHNSKNTLSLQMNSLRAEDTAVYYCARGEGANYYGMDVWGQGTTVTVSS VL: QSVLTQPPSVSGAPGQRVTISCTGSSSNIGTGYDVHWYQQLPGTAPKLLIYGNSNRPSGVPDRFSGSKSGTSASLAITGLQAEDEADYYCQSYDSSLSGYVVFGGGTKLTVLG" result="0.0544 nM"
binder="mAb10938 (antibody, V domains shown) VH: EVQLVESGGGLVQPGGSLRLSCAVSGFTVSSNYMSWVRQAPGKGLEWVSLIYSGGSTFYADSVKGRFTISRHNSKNTLYLQMNSLRAEDTAVYYCAREGGYSYDYNYWGQGTLVTVSS VL: DIQMTQSPSSLSASVGDRVTITCQASQDIRNYLNWYQQKPGKAPKLLIYDASNLETGVPSRFSGIGSGTDFTFTISSLQPEDIATYYCQQYDNLPITFGQGTRLEIKR" result="≤ 0.0322 nM"
binder="mAb10920 (antibody, V domains shown) VH: QVQLVESGGGVVQPGRSLRLSCAASGFTFSYYGMHWVRQAPGKGLEWVAVIWYDGSNKFYADSVKGRFTISRDNSKNTLYLQMNSLRAEDTAVYYCAAARPGYYYGMDVWGQGTTVTVSS VL: DIQMTQSPSSLSASVGDRVTITCRASQGISNYLAWFQQKPGKAPNSLIYAASSLQRGVPSKFSGSGSGTDFTLTISSLQPEDFATYYCQQYNSYPRTFGQGTKVEIKR" result="0.416 nM"
binder="mAb10957 (antibody, V domains shown) VH: EVQLVESGGGLVQPGGSLRLSCAASGVTVSSNYMSWVRQAPGKGLEWVSVIYSGGSTFYADSVKGRFTISRDNSKNTLFLQMNSLRIEDTAVYYCARDLGPYGMDVWGQGTTVTVSS VL: DIQLTQSPSFLSASVGDRVTITCRASQGISSYLAWYQQKPGKAPKLLIYAASTLQSGVPSRFSGSGSGTQFILTISSLQPEDFATYYCQQLNSYPGFTFGPGTKVDIKR" result="≤ 0.0279 nM"
binder="mAb10955 (antibody, V domains shown) VH: EVQLVESGGGLVQPGGSLRVSCAASGFTVSRNYMSWVRQAPGKGLEWVSVIYSGGSTFYADSVKGRFTISRDNSKNTLYLQMNSLRAEDTAIYYCARYIPRFDPWGQGTLVTVSS VL: DIQMTQSPSSLSASVGDRVTITCQASQDISNYLNWFQQKPGRAPKLLIYDASNLETGVPSRFSGSGSGTDFTFTISSLQPEDIATYYCQQYDNLPITFGQGTRLEIKR" result="0.0592 nM"
binder="mAb10939 (antibody, V domains shown) VH: EVQLVESGGGLVQPGGSLRLSCAASGLTVSSNYMNWVRQVPGKGLEWVSVIYSGGSKFYVDSVKGRFTISRHNSKNTLYLQMNSLRPEDTAVYYCTRDAQYYGMDVWGQGTTVTVSS VL: DIQMTQSPSSLSASVGDRVTITCRASQSISTYLHWYQQKPGEAPKLLIYAASSLQSGVPSRFSGSGSGTDFTLTISSLQPEDFATYYCQQSYSTPPEIFGQGTKLEIKR" result="0.0387 nM"
binder="mAb10964 (antibody, V domains shown) VH: QVQLQESGPGLVKPSETLSLTCTVSGGSINNYYWIWIRQPPGKGLEWIGYIYHSGSTNYNPSLKSRVTISVDTSKNQFSLKVSSVTAADTAVYYCANMVRGVYEDDYWGQGTLVTVSS VL: DIQMTQSPSSLSASVGDRVTITCRASQSISNYLNWYQQKPGKAPKLLIFAASSLRSGVPSRFSGSGSGTDFTLTISSLHPEDFATYYCQQNYNTPLTFGPGTKVDIKR" result="≤ 0.007 nM"

Value source: patent US20260234738A1
